Please provide measured melting point for the entries that follow.

Consider the following illustrative entries.
Endpoint output: melting point of COc1ccc2cc([S+]([O-])Cc3ccc(Br)cc3)oc2c1 (stereo not shown) . Value?
146 to 147 °C

Endpoint output: melting point of COc1ccc2cc([S+]([O-])Cc3ccc(F)cc3)oc2c1 (stereo not shown) . Value?
104.5 to 105.5 °C

Endpoint output: melting point of COC(=O)c1ccc(CS(=O)(=O)c2cc3ccc(OC)cc3o2)cc1 . Value?
175 to 176 °C

Endpoint output: melting point of COc1ccc(CS(=O)(=O)c2cc3ccc(OC)cc3o2)cc1 . Value?
114 to 115 °C

Endpoint output: melting point of COc1ccc(C[S+]([O-])c2cc3ccc(F)cc3o2)cc1 (stereo not shown) . Value?
140 to 141 °C

Endpoint output: melting point of COC(=O)c1ccc(C[S+]([O-])c2cc3ccc(F)cc3o2)cc1 (stereo not shown) . Value?
137 to 138 °C

Endpoint output: melting point of COC(=O)c1ccc(C[S+]([O-])c2cc3ccc(OC)cc3o2)cc1 (stereo not shown) . Value?
157 to 158 °C

Endpoint output: melting point of COc1ccc2cc(S(=O)(=O)Cc3ccc(F)cc3)oc2c1 . Value?
99 to 100 °C

Endpoint output: melting point of COc1ccc2cc(S(=O)(=O)Cc3ccc(C#N)cc3)oc2c1 . Value?
160 to 161 °C

--- query ---
Endpoint output: melting point of COc1ccc2cc(S(=O)(=O)Cc3ccc(Br)cc3)oc2c1 . Value?
133 to 134 °C

====

Target under test: human recombinant SIRT2 (Homo sapiens, UniProt Q8IXJ6)
Sequence (Q8IXJ6 whole entry): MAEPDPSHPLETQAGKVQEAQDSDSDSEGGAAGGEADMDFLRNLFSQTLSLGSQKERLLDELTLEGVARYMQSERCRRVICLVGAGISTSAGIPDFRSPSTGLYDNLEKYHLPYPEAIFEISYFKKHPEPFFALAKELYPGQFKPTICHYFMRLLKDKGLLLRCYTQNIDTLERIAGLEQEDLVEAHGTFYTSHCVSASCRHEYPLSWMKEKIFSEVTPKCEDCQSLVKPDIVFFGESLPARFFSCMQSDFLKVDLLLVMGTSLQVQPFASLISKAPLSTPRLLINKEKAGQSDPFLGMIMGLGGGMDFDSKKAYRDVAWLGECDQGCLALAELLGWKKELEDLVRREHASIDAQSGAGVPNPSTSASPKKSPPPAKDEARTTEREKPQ
Assay name: SIRT2 enzymatic deacetylation assay with AMC-tagged peptide substrate (fluorescence)
Please provide measured pIC50 for the entries that follow.
Numbers only, as −log10 of the molar value.

Consider the following illustrative entries.
Endpoint output: pIC50 of COC(=O)c1ccc(C[S+]([O-])c2cc3ccc(F)cc3o2)cc1 (centres unmarked) . Value?
4.71

Endpoint output: pIC50 of O=S(=O)(Cc1ccc(Br)cc1)c1cc2ccc(F)cc2o1 . Value?
4.70

Endpoint output: pIC50 of COc1ccc2cc([S+]([O-])Cc3ccc(F)cc3)oc2c1 (centres unmarked) . Value?
4.02

Need pIC50 for each of these compounds.
1. COc1ccc(C[S+]([O-])c2cc3ccc(OC)cc3o2)cc1 (centres unmarked)
2. N#Cc1ccc(CS(=O)(=O)c2cc3ccc(F)cc3o2)cc1
3. COC(=O)c1ccc(CS(=O)(=O)c2cc3ccc(F)cc3o2)cc1
4. COC(=O)c1ccc(C[S+]([O-])c2cc3ccc(OC)cc3o2)cc1 (centres unmarked)

1. 4.87
2. 5.05
3. 5.21
4. 4.80

Need pIC50 for each of these compounds.
1. COc1ccc(C[S+]([O-])c2cc3ccc(F)cc3o2)cc1 (centres unmarked)
2. COc1ccc2cc([S+]([O-])Cc3ccc(C#N)cc3)oc2c1 (centres unmarked)
3. [O-][S+](Cc1ccc(F)cc1)c1cc2ccc(F)cc2o1 (centres unmarked)
4. COc1ccc(CS(=O)(=O)c2cc3ccc(OC)cc3o2)cc1
5. COc1ccc2cc(S(=O)(=O)Cc3ccc(F)cc3)oc2c1
6. COc1ccc(CS(=O)(=O)c2cc3ccc(F)cc3o2)cc1

1. 4.55
2. 4.82
3. 4.06
4. 5.12
5. 4.36
6. 5.10

Need pIC50 for each of these compounds.
1. [O-][S+](Cc1ccc(Br)cc1)c1cc2ccc(F)cc2o1 (centres unmarked)
2. COc1ccc2cc(S(=O)(=O)Cc3ccc(Br)cc3)oc2c1

[4.13, 4.75]

Need pIC50 for each of these compounds.
1. N#Cc1ccc(C[S+]([O-])c2cc3ccc(F)cc3o2)cc1 (centres unmarked)
2. COC(=O)c1ccc(CS(=O)(=O)c2cc3ccc(OC)cc3o2)cc1

4.48
5.42

Need pIC50 for each of these compounds.
1. COc1ccc2cc(S(=O)(=O)Cc3ccc(C#N)cc3)oc2c1
2. COc1ccc2cc([S+]([O-])Cc3ccc(Br)cc3)oc2c1 (centres unmarked)
3. O=S(=O)(Cc1ccc(F)cc1)c1cc2ccc(F)cc2o1

[5.09, 4.07, 4.29]
